This listing pairs binders with measured Kd.
TGT: T1, human VEGF (hVEGF) (human, UniProt P15692 181-395)
T1 construct: also called VEGF-A
T1 sequence: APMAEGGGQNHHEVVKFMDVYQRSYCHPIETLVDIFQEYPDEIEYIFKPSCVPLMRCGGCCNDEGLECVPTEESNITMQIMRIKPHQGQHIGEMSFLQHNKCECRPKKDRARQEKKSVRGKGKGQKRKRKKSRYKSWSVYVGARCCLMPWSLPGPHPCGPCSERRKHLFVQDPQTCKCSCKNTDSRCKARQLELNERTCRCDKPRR
PROTOCOL SUMMARY: SPR
# output: bare number, implied unit nM

Worked cases, Kd given:
1) G6.31 LC-N94A (Fab, V domains shown, Fab) VH: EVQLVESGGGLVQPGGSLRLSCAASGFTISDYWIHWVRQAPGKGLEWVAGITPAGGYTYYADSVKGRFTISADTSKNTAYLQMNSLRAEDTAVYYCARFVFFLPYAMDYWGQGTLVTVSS VL: DIQMTQSPSSLSASVGDRVTITCRASQDVSTAVAWYQQKPGKAPKLLIYSASFLYSGVPSRFSGSGSGTDFTLTISSLQPEDFATYYCQQGYGAPFTFGQGTKVEIK: 1.06
2) G6.31 HC-Y58R (Fab, name in Kabat numbering, V domains shown, Fab) VH: EVQLVESGGGLVQPGGSLRLSCAASGFTISDYWIHWVRQAPGKGLEWVAGITPAGGYTRYADSVKGRFTISADTSKNTAYLQMNSLRAEDTAVYYCARFVFFLPYAMDYWGQGTLVTVSS VL: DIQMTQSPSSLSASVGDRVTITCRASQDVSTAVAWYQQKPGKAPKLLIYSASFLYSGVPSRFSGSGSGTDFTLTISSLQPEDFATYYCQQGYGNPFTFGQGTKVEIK: 0.076
3) G6.31 HC-N82aR (Fab, name in Kabat numbering, V domains shown, Fab) VH: EVQLVESGGGLVQPGGSLRLSCAASGFTISDYWIHWVRQAPGKGLEWVAGITPAGGYTYYADSVKGRFTISADTSKNTAYLQMRSLRAEDTAVYYCARFVFFLPYAMDYWGQGTLVTVSS VL: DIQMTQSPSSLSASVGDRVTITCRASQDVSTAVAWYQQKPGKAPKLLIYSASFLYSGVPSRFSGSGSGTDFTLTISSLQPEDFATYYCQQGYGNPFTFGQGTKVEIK: 0.077

// next entry
Req: Fill in reported Kd for this entry: G6.31 Y58R.N94A.F83A (Fab, name in Kabat numbering, V domains shown, Fab) VH: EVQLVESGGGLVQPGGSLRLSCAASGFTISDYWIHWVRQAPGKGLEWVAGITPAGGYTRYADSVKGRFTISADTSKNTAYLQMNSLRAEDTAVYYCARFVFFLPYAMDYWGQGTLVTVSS VL: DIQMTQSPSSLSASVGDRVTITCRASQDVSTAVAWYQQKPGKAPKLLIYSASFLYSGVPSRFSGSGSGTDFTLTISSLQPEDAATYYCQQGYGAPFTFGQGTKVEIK
Resp: 0.135
